Values were extracted from patent US8349801B2.

Tested target: MrgX1 (Homo sapiens, UniProt Q96LB2)
Construct: expressed in transfected cells; host or cells: CHO-K1 (ATCC-CCL-61), transient co-transfection
Sequence (Q96LB2 whole entry): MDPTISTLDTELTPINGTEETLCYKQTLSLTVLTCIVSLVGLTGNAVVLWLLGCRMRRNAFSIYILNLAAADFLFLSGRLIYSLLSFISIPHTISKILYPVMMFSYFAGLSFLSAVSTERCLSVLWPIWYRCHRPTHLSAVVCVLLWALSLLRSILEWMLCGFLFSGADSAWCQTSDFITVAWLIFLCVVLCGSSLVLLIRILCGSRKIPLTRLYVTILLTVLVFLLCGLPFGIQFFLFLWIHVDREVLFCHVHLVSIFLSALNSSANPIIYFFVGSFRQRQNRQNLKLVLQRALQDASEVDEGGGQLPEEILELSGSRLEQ
Test name: Calcium flux in CHO-K1 cells co-transfected with MrgX1 and Gα16
Type: cell-based
Condition details: dose response 1-3000 nM
pEC50: −log10 of the molar value. No end group written: not given here.
Value kind: pEC50

stdin: Name the recorded pEC50 for GIGSVWHWKHRVATRFTLPRFLQ [Peptide P60_S] .
stdout: ≤ 6.52

====

Tested target: FPRL1 (Homo sapiens)
Sequence (P25090 1-351): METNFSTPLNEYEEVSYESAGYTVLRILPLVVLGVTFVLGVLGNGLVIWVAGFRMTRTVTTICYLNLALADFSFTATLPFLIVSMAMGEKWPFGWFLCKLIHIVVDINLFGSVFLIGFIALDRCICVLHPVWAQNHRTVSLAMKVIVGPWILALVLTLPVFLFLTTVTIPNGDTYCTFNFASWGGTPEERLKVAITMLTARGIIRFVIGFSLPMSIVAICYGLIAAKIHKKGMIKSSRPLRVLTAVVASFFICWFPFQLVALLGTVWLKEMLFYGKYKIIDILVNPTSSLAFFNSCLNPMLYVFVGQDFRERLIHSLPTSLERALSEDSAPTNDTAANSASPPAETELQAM
Test name: Competitive radioligand binding assay ([125I] WKYMVm) to FPRL1 in CHO transfected cells
Design: expressed in transfected cells; host or cells: CHO transfected cells
Condition details: 0.025 nM [125I] WKYMVm, 90 minutes at 25° C.; read-out: IC50, inhibition of W peptide binding
Experimental: The specific binding of Peptide 58 (SEQ ID NO:1) to FPRL1 was analyzed by testing its ability to compete with 0.025 nM [^125I] WKYMVm (W peptide), a known agonist of FPRL1, for binding to FPRL1 in CHO transfected cells. […] Peptides were incubated with cells for 90 minutes at 25° C., in the presence of Incubation Buffer (50 mM HEPES, pH 7.4, 100 mM NaCl, 5 mM KCl, 5 mM MgCl2, 2 mM Ca Cl2, 0.5% BSA) and the amount of radioactive W peptide was measured.
No end group written: not given here.
Value kind: pIC50
Notebook: values listed as pIC50 are -log10 of the concentration (mol/L).

stdin: What value of pIC50 has been reported for the following substance? TIPMFVPESTSKLQKFTSWFM-NH2 [Peptide P58]
stdout: 6.72

====

Kindly supply the reported EC50 values for the records listed here.
Tested target: Mas receptor (Homo sapiens)
Construct: expressed in transfected cells; host or cells: CHO-K1 (ATCC-CCL-61), transient co-transfection
Sequence (P04201 whole entry): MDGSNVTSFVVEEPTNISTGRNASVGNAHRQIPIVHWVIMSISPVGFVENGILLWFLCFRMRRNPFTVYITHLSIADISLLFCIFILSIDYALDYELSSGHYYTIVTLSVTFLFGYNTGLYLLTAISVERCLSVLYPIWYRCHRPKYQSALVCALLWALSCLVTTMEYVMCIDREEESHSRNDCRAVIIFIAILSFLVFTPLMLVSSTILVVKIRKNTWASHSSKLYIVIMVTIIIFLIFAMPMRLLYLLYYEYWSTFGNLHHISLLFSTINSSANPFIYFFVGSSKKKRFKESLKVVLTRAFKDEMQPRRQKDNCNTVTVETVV
Test name: Calcium flux in CHO-K1 cells co-transfected with Mas receptor and Gα16
Assay type: cell-based
Condition details: doses 10-3000 nM; highest response not reached
No end group written: not given here.

stdin: Requested read-out: EC50. Entry: SMVHRWSRAVLFPAAHRP [Peptide P33_V, SMVHRWSRAVLFPAAHRP]
stdout: ≥ 1000 nM

stdin: Name the recorded EC50 for FLGYSIYLNRKRRGDPAFKRRLRD [Peptide P61_S] .
stdout: ≥ 500 nM
